Listed next: entries and their corresponding nuclei count.
Experiment: reduction of polyQ htt aggregates in cells – imaging, exon1htt(103Q)mCFP cells, high-content imaging, primary screen (AID 483);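 further: compound exposure lasted 3 days before fixation; percent of the per-plate median nuclei count of sample wells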
Settings: exon1htt(103Q)mCFP cell line, aggregate imaging, at 2 µM; measured here: cell count, toxicity
Return type: number; implicit unit %.

Worked cases, nuclei count given:
Query block: Supply reported nuclei count belonging to this molecule: CN(Cc1ccccc1)Cc1nc2c(c(=O)n(C)c(=O)n2C)n1Cc1ccc(Cl)cc1
Result block: 72.4

Query block: Supply reported nuclei count belonging to this molecule: CC(NS(=O)(=O)c1ccc(F)cc1)C(c1cccs1)N1CCN(C)CC1 (configuration not stated)
Result block: 104

Query block: Supply reported nuclei count belonging to this molecule: CCOC(=O)C1(C)NC(c2ccc(OC)c(OC)c2)C2C(=O)N(CC)C(=O)C21 (configuration not stated)
Result block: 105

Query block: Supply reported nuclei count belonging to this molecule: CCOC(=O)N1CCN(c2c(N3CCN(c4ccccn4)CC3)c(=O)c2=O)CC1
Result block: 76.1

Query block: Supply reported nuclei count belonging to this molecule: O=C(Nc1ccc(Cc2ccc(NC(=O)N3CCOCC3)cc2)cc1)N1CCOCC1
Result block: 61.1

Query block: Supply reported nuclei count belonging to this molecule: CCCCN(CCCC)CCn1cnc2c([nH]c3ccc(OC)cc32)c1=O
Result block: 85.8

Query block: Supply reported nuclei count belonging to this molecule: COc1cccc(-c2nc(CS(=O)CC(=O)NCCCOC(C)C)c(C)o2)c1 (configuration not stated)
Result block: 119

Query block: Supply reported nuclei count belonging to this molecule: COc1cc(C2NC(=O)NC(C)=C2C(=O)OCC2CCCO2)ccc1O (configuration not stated)
Result block: 112

Query block: Supply reported nuclei count belonging to this molecule: C/C(=N\O)C(C)/[N+]([O-])=C/c1nc(C)c(C)n1O (configuration not stated)
Result block: 106

Query block: Supply reported nuclei count belonging to this molecule: CCOC(=O)c1sc(NC(=O)CSc2nnc3c4ccccc4n(CC)c3n2)nc1C
Result block: 106

---
Query block: Supply reported nuclei count belonging to this molecule: Cc1cc(=O)n(CCO)c(O)c1C#N
Result block: 94

Query block: Supply reported nuclei count belonging to this molecule: O=C(Nc1ccc(N2CCCC2)cc1)c1cccc(F)c1
Result block: 94.5

Query block: Supply reported nuclei count belonging to this molecule: O=C(OCC(=O)c1ccccc1Br)c1ccccn1
Result block: 98.4

Query block: Supply reported nuclei count belonging to this molecule: CC(C)(C)SCCNC(=O)CSc1ccccc1
Result block: 93

Query block: Supply reported nuclei count belonging to this molecule: COCCN1CCN(c2c(C)c(C)nc3cc(-c4cccc(OC)c4)nn23)CC1
Result block: 80.5

Query block: Supply reported nuclei count belonging to this molecule: O=C(Nc1nccs1)c1ccc(COc2ccccc2Br)o1
Result block: 111

Query block: Supply reported nuclei count belonging to this molecule: C/C(=N\O)C(=O)NCc1ccccn1
Result block: 108

---

Experiment: inhibitors of TNFa-induced NFkB p65 translocation, primary screen, imaging, HUVEC, MLSMR starter and 10KST1 sets (AID 438);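 further: compound added about 3h40 before a 20 min TNFalpha stimulation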
Details: HUVEC TNFa-induced p65 nuclear translocation; measured here: nuclei count (cytotoxicity indicator), at 2.08 µM
Listed next: entries and their corresponding cell count.
Enter the number alone.

Worked cases, cell count given:
Query block: Supply reported cell count belonging to this molecule: CC1(C)CC(=O)C(C#N)=C(NCCCO)C1
Result block: 471

Query block: Supply reported cell count belonging to this molecule: CC1=C(C(N)=O)C(c2ccccn2)n2nc(SCc3ccccc3)nc2N1 (stereo not drawn)
Result block: 624

Query block: Supply reported cell count belonging to this molecule: O=C(CN1CCC(NC(=O)c2ccc(F)cc2)CC1)NCc1ccccc1F
Result block: 435

---
Query block: Supply reported cell count belonging to this molecule: CCOc1cc(NC(=O)c2ccco2)c(OCC)cc1NC(=O)CCC(=O)NCc1cccnc1
Result block: 600

Query block: Supply reported cell count belonging to this molecule: O=C(CSc1nnc(COc2ccc(Cl)cc2)o1)OC1CCCCC1
Result block: 530

Query block: Supply reported cell count belonging to this molecule: Cc1ccc2c(c1)CCCN2C(=O)Nc1ccc2c(c1)OCO2
Result block: 365

Query block: Supply reported cell count belonging to this molecule: COc1ccc(N2CCN(CCCNC(=O)CC3Oc4ccc(C)cc4NC3=O)CC2)cc1 (stereo not drawn)
Result block: 581

Query block: Supply reported cell count belonging to this molecule: O=C(NCC1CCCO1)C1CCN(c2ccc(S(=O)(=O)N3CCCC3)cc2)CC1 (stereo not drawn)
Result block: 446

Query block: Supply reported cell count belonging to this molecule: Cc1ccc2c(c1)nnn2C1CCN(C(=O)NC23CC4CC(CC(C4)C2)C3)CC1
Result block: 471

Query block: Supply reported cell count belonging to this molecule: COc1ccccc1NC(=O)N(C1CCCC1)C1CCN(C(C)=O)CC1
Result block: 830

Query block: Supply reported cell count belonging to this molecule: CC1(C)CC(=O)C2=C(C1)NC(=O)CC2C(=O)NCc1ccc(F)cc1 (stereo not drawn)
Result block: 533

Query block: Supply reported cell count belonging to this molecule: CC(=O)c1ccc(OCC(O)CN2CC(C)OC(C)C2)cc1 (stereo not drawn)
Result block: 310

Query block: Supply reported cell count belonging to this molecule: O=C(CN1CCCN(S(=O)(=O)c2ccc(Br)cc2)CC1)Nc1ccc2c(c1)OCO2
Result block: 587

---

Assay: inhibitors of TNFa-induced NFkB p65 translocation, primary screen, imaging, HUVEC, MLSMR starter and 10KST1 sets (AID 438);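 further: compound added about 3h40 before a 20 min TNFalpha stimulation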
Details: HUVEC TNFa-induced p65 nuclear translocation; measured here: nuclei count (cytotoxicity indicator), at 2.08 µM
value.type: cell count
Enter the number alone.

Worked cases, cell count given:
Query block: Supply reported cell count belonging to this compound: CCOC(=O)N1CCN(S(=O)(=O)c2ccc(F)c(C(=O)Nc3cc(C)cc(C)c3)c2)CC1
Result block: 578

Query block: Supply reported cell count belonging to this compound: COc1ccc(S(=O)(=O)Nc2ccc(F)c(F)c2)cc1Cl
Result block: 723

Query block: Supply reported cell count belonging to this compound: Clc1cccc(Nc2c3c(nc4ncnn24)CCC3)c1
Result block: 416

Query block: Supply reported cell count belonging to this compound: CN1CCN(C(=O)NC2CCCN2S(=O)(=O)c2ccc(Cl)cc2)CC1 (centres undefined)
Result block: 528

Query block: Supply reported cell count belonging to this compound: COc1ccc(C)cc1NCc1cccc(OC)c1OC
Result block: 335

Query block: Supply reported cell count belonging to this compound: Cc1ccc(OCc2nnc(SCC(=O)N3CCOCC3)n2C)cc1
Result block: 594

Query block: Supply reported cell count belonging to this compound: COc1ccccc1OCC(=O)N1CCNC1=O
Result block: 652

Query block: Supply reported cell count belonging to this compound: CCCCn1c(NC(=O)CC)c(C#N)c2nc3ccccc3nc21
Result block: 273

We next turn to a different compound, shown below.
Query block: Supply reported cell count belonging to this compound: COC(=O)c1ccccc1NC(=O)C1CC(=O)N(c2ccccc2)C1 (centres undefined)
Result block: 576

---

Listed next: entries and their corresponding inhibition.
Assay: blockers of RIG-like receptor reporter activation – cell-based, Sendai virus stimulus, luciferase, 10K MLSCN set, TLR/RLR signaling modifier project, primary screen (AID 602276);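 further: firefly luciferase from ISG56 promoter only with Renilla not read in this screen; 0% = Sendai virus plus DMSO and 100% = medium plus DMSO without virus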
Details: HEK293 RL24 IRF3 luciferase reporter, at 10 µM, stronger effect = higher value
Return type: number; implicit unit %.

Worked cases, inhibition given:
Query block: Supply reported inhibition belonging to this compound: O=C(c1ccc(Cl)s1)N1CCN(c2nc3ccccc3s2)CC1
Result block: 8.1

Query block: Supply reported inhibition belonging to this compound: O=C(CCSc1nc(-c2ccco2)cc(C(F)(F)F)n1)NCCc1ccccc1
Result block: -7.29

---
Query block: Supply reported inhibition belonging to this compound: COc1ccc(C2C(C(=O)N3CCCC3)c3cc(OC)c(OC)cc3C(=O)N2C)cc1 (stereo not drawn)
Result block: 3.19

---

Assay: inhibitors of TNFa-induced NFkB p65 translocation, primary screen, imaging, HUVEC, MLSMR starter and 10KST1 sets (AID 438);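 further: compound added about 3h40 before a 20 min TNFalpha stimulation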;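 on inhibition: signal is the nuclear over cytoplasmic p65 intensity ratio per well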
Details: HUVEC TNFa-induced p65 nuclear translocation; at 2 µM, stronger effect = higher value, 0% TNFa-plus-vehicle, 100% no-TNFa wells
value.type: inhibition (%)
Return type: number; implicit unit %.

Worked cases, inhibition given:
Query block: Supply reported inhibition belonging to this compound: CCOC(=O)c1sc2nc(SCC(=O)NCc3ccco3)n(Cc3ccccc3)c(=O)c2c1C
Result block: -1.1

Query block: Supply reported inhibition belonging to this compound: c1ccc(N2CCN(Cc3cn4cccnc4n3)CC2)cc1
Result block: -18.4

Query block: Supply reported inhibition belonging to this compound: CCOc1ccc(Cc2nn[nH]n2)cc1
Result block: -3.2

Query block: Supply reported inhibition belonging to this compound: CCOC(=O)c1cccc(NC(=O)CSc2nnc(-c3cccnc3)n2CC)c1
Result block: -6.7

Query block: Supply reported inhibition belonging to this compound: CCCNC(=O)NC1C(NC(=O)NCCC)N(C)C(=O)N1C (stereo not drawn)
Result block: -0.3

---
Query block: Supply reported inhibition belonging to this compound: COC(=O)c1ccc2c(=O)n(CC3CCCO3)c(=S)[nH]c2c1 (stereo not drawn)
Result block: 16

Query block: Supply reported inhibition belonging to this compound: O=C(Cn1cc2c(n1)CCCCC2)N1CCc2ccccc2C1
Result block: 12

Query block: Supply reported inhibition belonging to this compound: COc1cc(C2c3c(n[nH]c3C)C(=O)N2c2ccc(Br)cc2)ccc1O (stereo not drawn)
Result block: -3.9

Value source: PubChem BioAssay
